Measured values drawn from patent US5889053A for this set.

Target: human farnesyl transferase (Homo sapiens, UniProt P49354+P49356)
Construct: human farnesyl transferase purified from THP1 cell cultures; endogenous in cells
Experiment: Inhibition of farnesyl transferase and of farnesylation of the Ras protein ([3H]farnesyl transfer from [3H]FPP to p21 H-Ras)
Conditions: p21 H-Ras substrate, 20 min at 37° C., 9 concentrations; read-out: Inhibitory activity IC50
value-type: IC50 (nM)
Report the figure in nM without appending any unit label.

CSCC[C@H](NC(=O)c1cc(NC[C@@H](N)CS)cc2ccccc12)C(=O)O
31
COC(=O)[C@H](CCSC)NC(=O)c1cc(NC[C@@H](N)CS)cc2ccccc12
300
CSCC[C@H](NC(=S)c1cc(NC[C@@H](N)CS)cc2ccccc12)C(=O)O
55
CSCC[C@H](NC(=O)c1ccc(NC[C@@H](N)CS)c2ccccc12)C(=O)O
23

Let's switch to this compound now.
Look up IC50: COC(=O)[C@H](CCSC)NC(=O)c1ccc(NC[C@@H](N)CS)c2ccccc12
100
